Target: Nav1.6 (Homo sapiens, UniProt Q9UQD0)
Sequence (Q9UQD0 whole entry): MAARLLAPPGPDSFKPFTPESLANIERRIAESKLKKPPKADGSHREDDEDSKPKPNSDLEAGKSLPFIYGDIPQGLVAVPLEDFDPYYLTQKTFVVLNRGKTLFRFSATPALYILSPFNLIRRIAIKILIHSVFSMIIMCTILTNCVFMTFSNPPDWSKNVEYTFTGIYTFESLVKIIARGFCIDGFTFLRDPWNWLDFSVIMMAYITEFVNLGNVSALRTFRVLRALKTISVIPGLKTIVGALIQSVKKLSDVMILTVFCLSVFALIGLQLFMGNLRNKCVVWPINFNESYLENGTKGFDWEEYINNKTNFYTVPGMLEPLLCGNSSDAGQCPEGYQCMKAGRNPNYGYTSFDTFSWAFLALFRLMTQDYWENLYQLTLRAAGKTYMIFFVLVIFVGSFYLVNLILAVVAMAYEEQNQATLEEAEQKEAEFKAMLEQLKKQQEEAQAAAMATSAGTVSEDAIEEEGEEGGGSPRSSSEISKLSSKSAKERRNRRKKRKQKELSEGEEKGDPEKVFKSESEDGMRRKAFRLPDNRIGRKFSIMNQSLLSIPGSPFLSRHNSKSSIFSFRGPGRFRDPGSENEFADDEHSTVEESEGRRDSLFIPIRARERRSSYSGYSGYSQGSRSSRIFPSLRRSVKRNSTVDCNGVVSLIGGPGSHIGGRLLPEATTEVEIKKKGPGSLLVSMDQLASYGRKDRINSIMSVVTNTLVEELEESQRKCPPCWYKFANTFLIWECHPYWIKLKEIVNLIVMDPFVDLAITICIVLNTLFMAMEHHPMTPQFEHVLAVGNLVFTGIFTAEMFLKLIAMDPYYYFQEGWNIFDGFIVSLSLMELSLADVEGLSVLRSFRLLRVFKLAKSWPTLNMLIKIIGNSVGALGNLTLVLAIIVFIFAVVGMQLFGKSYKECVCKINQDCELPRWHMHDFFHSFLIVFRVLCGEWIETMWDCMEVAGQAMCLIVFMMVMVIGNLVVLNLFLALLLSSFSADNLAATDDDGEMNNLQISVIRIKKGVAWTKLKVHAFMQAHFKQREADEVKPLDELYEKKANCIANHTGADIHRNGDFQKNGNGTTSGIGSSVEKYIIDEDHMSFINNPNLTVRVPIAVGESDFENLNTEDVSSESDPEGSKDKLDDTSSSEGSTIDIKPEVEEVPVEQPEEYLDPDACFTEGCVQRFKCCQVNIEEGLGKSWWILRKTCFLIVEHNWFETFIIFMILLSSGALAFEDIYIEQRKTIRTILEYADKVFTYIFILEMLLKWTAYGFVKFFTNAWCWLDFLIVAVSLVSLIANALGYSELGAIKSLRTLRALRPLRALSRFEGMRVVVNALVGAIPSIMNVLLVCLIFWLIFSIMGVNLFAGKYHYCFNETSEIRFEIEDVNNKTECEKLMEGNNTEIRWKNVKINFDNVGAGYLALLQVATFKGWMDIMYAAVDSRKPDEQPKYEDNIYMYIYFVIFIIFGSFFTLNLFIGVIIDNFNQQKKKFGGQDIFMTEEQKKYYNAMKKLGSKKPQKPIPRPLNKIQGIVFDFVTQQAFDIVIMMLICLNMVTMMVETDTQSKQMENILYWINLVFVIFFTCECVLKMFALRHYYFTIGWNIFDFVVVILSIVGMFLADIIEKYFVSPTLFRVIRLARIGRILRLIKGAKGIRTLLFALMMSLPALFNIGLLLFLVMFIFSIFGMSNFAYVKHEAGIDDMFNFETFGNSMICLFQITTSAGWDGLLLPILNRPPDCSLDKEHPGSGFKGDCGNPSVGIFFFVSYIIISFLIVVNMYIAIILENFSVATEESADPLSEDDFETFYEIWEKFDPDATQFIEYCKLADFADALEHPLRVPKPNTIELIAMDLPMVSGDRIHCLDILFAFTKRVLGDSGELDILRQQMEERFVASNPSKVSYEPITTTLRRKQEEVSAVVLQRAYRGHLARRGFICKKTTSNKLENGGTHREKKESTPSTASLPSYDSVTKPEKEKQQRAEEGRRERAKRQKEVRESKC
Assay: Nav two-pulse protocol, IonWorks Quattro electrophysiology
Assay type: cell-based
Settings: -120 mV to 0 mV, compound incubated 300 s, read-out: Nav1.6 Tonic
pIC50: −log10 of the molar value. Counter-ions that a name gives are not always drawn.

| Compound | Target Of Assay | pIC50 |
| --- | --- | --- |
| COCCNC(=O)C1CN(Cc2cccc(Oc3ccccc3)c2)CCO1 (centres unmarked) [Compound 107] | Nav1.6 (Homo sapiens, UniProt Q9UQD0) | < 4.70 |
| O=C(NCc1cccc(F)c1)C1CCN(Cc2cccc(Oc3ccccc3)c2)C1 (centres unmarked) [Compound 74] | Nav1.6 (Homo sapiens, UniProt Q9UQD0) | 4.70 to 5.00 |
| CC(C)(C)c1ccc(CNC(=O)C2CCN(Cc3cccc(Oc4ccccc4)c3)C2)cc1 (centres unmarked) [Compound 81] | Nav1.6 (Homo sapiens, UniProt Q9UQD0) | 4.70 to 5.00 |
| COc1cccc(-c2cn(C3CCN(Cc4cccc(OCC(C)C)c4)C3)nn2)n1 (centres unmarked) [Compound 62] | Nav1.6 (Homo sapiens, UniProt Q9UQD0) | < 4.70 |
| O=C(NCc1cccc(Cl)c1)C1CCN(Cc2cccc(Oc3ccccc3)c2)C1 (centres unmarked) [Compound 69] | Nav1.6 (Homo sapiens, UniProt Q9UQD0) | < 4.70 |
| COc1cccc(Oc2cccc(CN3CCC(F)(C(=O)NCc4ccccn4)C3)c2)c1 (centres unmarked) [Compound 23] | Nav1.6 (Homo sapiens, UniProt Q9UQD0) | < 4.70 |
| O=C(NCc1ccccn1)C1CCN(Cc2cccc(Oc3ccc(F)cc3)n2)C1 (centres unmarked) [Compound 20] | Nav1.6 (Homo sapiens, UniProt Q9UQD0) | < 4.70 |
| O=C(NCc1ccccn1)C1CCN(Cc2cccc(OC(F)(F)F)c2)C1 (centres unmarked) [Compound 109, hydrochloride] | Nav1.6 (Homo sapiens, UniProt Q9UQD0) | 4.70 to 5.00 |

* * *

Recorded pIC50 by entry
Molecular target: Nav1.6 (Homo sapiens)
Test: Nav two-pulse protocol, IonWorks Quattro electrophysiology
Type: cell-based
Conditions: -120 mV to 0 mV, compound incubated 300 s, read-out: Nav1.6 inac
pIC50: −log10 of the molar value.
Experimental Readout: pIC50

| Compound | Observed Measurement |
| --- | --- |
| O=C(NCc1ccccn1)C1CCN(Cc2cccc(Oc3ccc(F)cc3F)c2)C1 (centres unmarked) | > 6.00 |
| O=C(NCc1cc(F)cc(F)c1)C1CCN(Cc2cccc(Oc3ccccc3)c2)C1 (centres unmarked) | > 6.00 |
| O=C(NCc1ccccn1)C1(F)CCN(Cc2cccc(Oc3ccc(F)c(F)c3)c2)C1 (centres unmarked) | 5.30 to 6.00 |
| O=C(NCc1ccc(F)cc1)C1CCN(Cc2cccc(Oc3ccccc3)c2)C1 (centres unmarked) | 5.30 to 6.00 |
| O=C(NCc1ccc(C(F)(F)F)cc1)C1CCN(Cc2cccc(Oc3ccccc3)c2)C1 (centres unmarked) | 5.30 to 6.00 |
| O=C(NCc1ccccn1)C1CCN(Cc2cccc(OCC(F)(F)F)c2)C1 (centres unmarked) | > 6.00 |
| Cc1cccc(Oc2cccc(CN3CCC(C(=O)NCc4ccccn4)C3)c2)c1 (centres unmarked) | < 5.30 |
| O=C(NCc1ccc(Cl)cc1)C1CCN(Cc2cccc(Oc3ccccc3)c2)C1 (centres unmarked) | 5.30 to 6.00 |

* * *

Recorded pIC50 by entry
Biological target: Nav1.6 (Homo sapiens, UniProt Q9UQD0)
Assay: Nav two-pulse protocol, IonWorks Quattro electrophysiology
Type: cell-based
Conditions: -120 mV to 0 mV, compound incubated 300 s, read-out: Nav1.6 Tonic
Method: Compound Plate Preparation Supplied compounds were sent as Assay Ready Plates, with 2 μL per well of compound in DMSO at 300× the final assay concentrations as described above and in the project proposal. All assay plates are stored at in a −80° C. freezer. On the day of the assay, 198 μL of external solution was added to the appropriate assay plate and mixed thoroughly. […] The parameters measured were the maximum inward current evoked on stepping to 0 mV from the 1st and 2nd pulse. […]
pIC50: −log10 of the molar value.

| Compound | pIC50 |
| --- | --- |
| CC1(C)Oc2ccc(CN3CCC(C(=O)NCc4ccccn4)C3)cc2O1 (stereo not drawn) | < 4.70 |
| O=C(NCc1ccccn1)C1CCN(Cc2ccc(F)c(Oc3ccccc3)c2)C1 (stereo not drawn) | < 4.70 |
| Cc1ccc(CNC(=O)C2CCN(Cc3cccc(OCC(F)(F)F)c3)C2)nc1 (stereo not drawn) | < 4.70 |
| O=C(NCc1c(F)cccc1F)C1CCN(Cc2cccc(Oc3ccccc3)c2)C1 (stereo not drawn) | 4.70 to 5.00 |
| CC(C)COc1cccc(CN2CCC(Cn3ccnc3)C2)c1 (stereo not drawn) | < 4.70 |
| Cc1cnc(CNC(=O)C2CCN(Cc3cccc(OCC(F)(F)F)c3)C2)cn1 (stereo not drawn) | < 4.70 |

* * *

Recorded pIC50 by entry
Biological target: Nav1.6 (Homo sapiens, UniProt Q9UQD0)
Test: Nav two-pulse protocol, IonWorks Quattro electrophysiology
Type: cell-based
Details: -120 mV to 0 mV, compound incubated 300 s, read-out: Nav1.6 Tonic
pIC50: −log10 of the molar value.

| Molecule | pIC50 |
| --- | --- |
| CC(C)COc1cccc(CN2CCC(n3cc(-c4cccc(Br)n4)nn3)C2)c1 (stereo not drawn) [Compound 63] | < 4.70 |
| CC1(C(=O)NCc2ccccn2)CCN(Cc2coc(-c3ccccc3)n2)C1 (stereo not drawn) [Compound 99] | < 4.70 |
| O=C(NCc1ccccn1)C1(F)CCN(Cc2cccc(Oc3ccc(F)c(F)c3)c2)C1 (stereo not drawn) [Compound 24] | < 4.70 |
| O=C(NCc1ccc(F)cc1)C1CCN(Cc2cccc(Oc3ccccc3)c2)C1 (stereo not drawn) [Compound 75] | 4.70 to 5.00 |
| CC(C)OCc1cccc(CN2CCC(CNC(=O)c3ccccn3)C2)c1 (stereo not drawn) [Compound 36] | < 4.70 |
| O=C(NCc1ccccn1)C1CCN(Cc2cccc(-c3ccccc3)c2)C1 (stereo not drawn) [Compound 29] | 4.70 to 5.00 |
| O=C(NCc1cc(F)cc(F)c1)C1CCN(Cc2cccc(Oc3ccccc3)c2)C1 (stereo not drawn) [Compound 76] | 4.70 to 5.00 |
| CC(C)COc1cccc(CN2CCC(c3noc(-c4ccc(F)cn4)n3)C2)c1 (stereo not drawn) [Compound 59] | < 4.70 |
| O=C(NCc1ccccn1)C1CN(Cc2cccc(Oc3ccccc3)c2)CCO1 (stereo not drawn) [Compound 105] | < 4.70 |

* * *

Recorded pIC50 by entry
Target: Nav1.6 (Homo sapiens, UniProt Q9UQD0)
Assay: Nav two-pulse protocol, IonWorks Quattro electrophysiology
Format: cell-based
Details: -120 mV to 0 mV, compound incubated 300 s, read-out: Nav1.6 Tonic
pIC50: −log10 of the molar value. Counter-ions that a name gives are not always drawn.
Experimental Readout: pIC50

| Molecule | Experimental Readout | Observed Measurement |
| --- | --- | --- |
| COc1cccnc1-c1nc(C2CCN(Cc3cccc(OCC(C)C)c3)C2)no1 (centres unmarked) [Compound 49] | pIC50 | < 4.70 |
| O=C(NCc1ccccn1)C1(F)CCN(Cc2cccc(Oc3cccc(C(F)(F)F)c3)c2)C1 (centres unmarked) [Compound 25] | pIC50 | < 4.70 |
| O=C(NCc1ccccc1C(F)(F)F)C1CCN(Cc2cccc(Oc3ccccc3)c2)C1 (centres unmarked) [Compound 72] | pIC50 | 4.70 to 5.00 |
| C[C@]1(C(=O)NCc2ccccn2)CCN(Cc2cccc(Oc3ccccc3)c2)C1 [Compound 38] | pIC50 | < 4.70 |
| O=C(NCc1ccccn1)C1CCN(Cc2cccc(Oc3cccnc3)c2)C1 (centres unmarked) [Compound 12] | pIC50 | < 4.70 |
| O=C(NCc1ccc(Cl)cc1)C1CCN(Cc2cccc(Oc3ccccc3)c2)C1 (centres unmarked) [Compound 68] | pIC50 | 4.70 to 5.00 |
| CC(C)CS(=O)(=O)c1cccc(CN2CCC(C(=O)OCc3ccccn3)C2)c1 (centres unmarked) [Compound 47] | pIC50 | < 4.70 |
| Cc1cc(C)nc(CNC(=O)C2CCN(Cc3cccc(S(=O)(=O)N4CCCC4)c3)C2)c1 (centres unmarked) [Compound 111, hydrochloride] | pIC50 | < 4.70 |

* * *

Molecular target: UniProtKB Q9UQD0
Test: Nav two-pulse protocol, IonWorks Quattro electrophysiology
Format: cell-based
Settings: -120 mV to 0 mV, compound incubated 300 s, read-out: Nav1.6 inac
pIC50: −log10 of the molar value.

| Compound | pIC50 |
| --- | --- |
| O=C(NCc1c(F)cccc1F)C1CCN(Cc2cccc(Oc3ccccc3)c2)C1 (stereo not drawn) | > 6.00 |
| CC(C)COc1cccc(CN2CCC(c3noc(Cc4ccccn4)n3)C2)c1 (stereo not drawn) | 5.30 to 6.00 |
| O=C(NCc1ccccn1)C1CCN(Cc2cccc(Oc3cccc(C(F)(F)F)c3)c2)C1 (stereo not drawn) | > 6.00 |
| Cc1ccc(CNC(=O)C2CCN(Cc3cccc(Oc4ccccc4)c3)C2)o1 (stereo not drawn) | < 5.30 |
| Cc1cccc(CNC(=O)C2CCN(Cc3cccc(Oc4ccccc4)c3)C2)c1 (stereo not drawn) | > 6.00 |
| CC(C)CSc1cccc(CN2CCC(C(=O)OCc3ccccn3)C2)c1 (stereo not drawn) | 5.30 to 6.00 |
| CCNC(=O)C1(C)CCN(C(=O)c2cccc(Oc3ccccc3)c2)C1 (stereo not drawn) | > 6.00 |
| Cc1ccc(CNC(=O)C2CCN(Cc3cccc(Oc4ccccc4)c3)C2)cc1 (stereo not drawn) | 5.30 to 6.00 |
| O=C(NCc1ccccn1)C1CCN(Cc2ccc(F)c(Oc3ccccc3)c2)C1 (stereo not drawn) | < 5.30 |
